# test system: UniProt:P42336
# Sequence (P42336 whole entry, looked up): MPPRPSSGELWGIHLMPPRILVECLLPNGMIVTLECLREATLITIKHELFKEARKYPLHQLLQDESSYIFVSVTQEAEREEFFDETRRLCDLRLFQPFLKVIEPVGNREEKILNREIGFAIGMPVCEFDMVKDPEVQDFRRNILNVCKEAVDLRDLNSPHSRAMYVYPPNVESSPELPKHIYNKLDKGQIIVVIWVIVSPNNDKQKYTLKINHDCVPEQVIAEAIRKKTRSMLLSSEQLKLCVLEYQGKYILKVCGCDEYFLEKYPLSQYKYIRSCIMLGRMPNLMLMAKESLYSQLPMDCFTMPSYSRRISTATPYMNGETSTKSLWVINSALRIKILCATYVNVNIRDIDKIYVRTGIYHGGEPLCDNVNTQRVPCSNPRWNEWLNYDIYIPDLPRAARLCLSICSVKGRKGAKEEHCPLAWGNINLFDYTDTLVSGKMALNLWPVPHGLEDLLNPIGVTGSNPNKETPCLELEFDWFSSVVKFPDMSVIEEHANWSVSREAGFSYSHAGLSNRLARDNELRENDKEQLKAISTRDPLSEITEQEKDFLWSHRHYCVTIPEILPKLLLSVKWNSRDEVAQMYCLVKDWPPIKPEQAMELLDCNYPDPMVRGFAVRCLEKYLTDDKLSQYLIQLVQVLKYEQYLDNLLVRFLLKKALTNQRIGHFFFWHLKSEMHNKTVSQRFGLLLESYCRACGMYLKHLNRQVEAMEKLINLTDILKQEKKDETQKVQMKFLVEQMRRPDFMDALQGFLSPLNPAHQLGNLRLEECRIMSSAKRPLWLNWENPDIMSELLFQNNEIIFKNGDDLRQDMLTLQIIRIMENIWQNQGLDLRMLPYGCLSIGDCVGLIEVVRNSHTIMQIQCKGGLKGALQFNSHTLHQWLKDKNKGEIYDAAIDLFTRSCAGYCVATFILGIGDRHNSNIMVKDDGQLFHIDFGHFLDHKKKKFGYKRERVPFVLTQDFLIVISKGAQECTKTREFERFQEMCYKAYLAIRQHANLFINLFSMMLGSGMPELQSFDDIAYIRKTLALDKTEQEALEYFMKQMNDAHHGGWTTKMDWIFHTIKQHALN
Please assign F whenever IC50 is at or above 10 nM, and T whenever it is below.

>  <compound>
Cc1ncc(-c2ccc3ncc4c(c3c2)n(-c2cccc(C(F)(F)F)c2)c(=O)n4C)cc1OCCF

>  <label value>
F

$$$$
>  <compound>
CNC(=O)Nc1ccc(-c2ccc3ncc4c(c3c2)n(-c2cccnc2OC)c(=O)n4C)cn1

>  <label value>
F

$$$$
>  <compound>
CNC(=O)Nc1ccc(-c2ccc3ncc4c(c3c2)n(-c2ccccc2C)c(=O)n4C)cn1

>  <label value>
F

$$$$
>  <compound>
COC(=O)Nc1ccc(-c2ccc3ncc4c(c3c2)n(-c2ccc(C(F)(F)F)nc2C)c(=O)n4C)cn1

>  <label value>
T

$$$$
>  <compound>
CNC(=O)Nc1ccc(-c2ccc3ncc4c(c3c2)n(-c2cccc(Cl)c2C)c(=O)n4C)cn1

>  <label value>
T

$$$$
>  <compound>
Cn1c(=O)n(-c2ccc(C(C)(C)C#N)cc2)c2c3cc(-c4cncc(OCC#N)c4)ccc3ncc21

>  <label value>
F

$$$$
>  <compound>
CNC(=O)Nc1ccc(-c2ccc3ncc4c(c3c2)n(-c2ccc(F)c(C(F)(F)F)c2)c(=O)n4C)cn1

>  <label value>
T

$$$$
>  <compound>
Cn1c(=O)n(-c2ccc(C(C)(C)C#N)cc2)c2c3cc(-c4ccc(NC(=O)NC5CCOC5)nc4)ccc3ncc21 (configuration not stated)

>  <label value>
F

$$$$
>  <compound>
CNC(=O)Nc1ccc(-c2ccc3ncc4c(c3c2)n(-c2cccc(F)c2Cl)c(=O)n4C)cn1

>  <label value>
T

$$$$
>  <compound>
COCc1ccc(-c2ccc3ncc4c(c3c2)n(-c2ccc(C(C)(C)C#N)cc2)c(=O)n4C)cn1

>  <label value>
F

$$$$
>  <compound>
CNC(=O)Nc1ccc(-c2ccc3ncc4c(c3c2)n(-c2cccc(C(F)(F)F)c2C)c(=O)n4C)cn1

>  <label value>
T

$$$$
